Test system: PYK2
Construct: gene PTK2B
Details: concentration: 1 μM, replicates: in singlicate; n = 1;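 further: KINOMEscan kinase panel screen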
For each of the molecules below, state its %Inh.
Numeric answer only, unit % assumed.

Incoming: Return %Inh measured with PYK2 given this molecule: `CCCNC(=O)Nc1ccc(Oc2ncnc3ccn(C)c23)cc1`
Outgoing: 3

Incoming: And for `O=c1cc(N2CCOCC2)nc2n(Cc3ccc(F)c(Cl)c3)ccn12` ?
Outgoing: 0

Incoming: `C[C@@H]1CC[C@H](C(=O)NC2CCCCC2)CN1c1cc(-c2ccc3c(N)n[nH]c3c2)nc(N)n1` ?
Outgoing: 24

Incoming: Follow-up item: `CCCC(=O)Nc1n[nH]c2ncc(-c3cccc4ccccc34)cc12`
Outgoing: 0

Incoming: Also `COc1cc(OC)cc(-c2cc3cnc(N)nc3nc2NC(=O)NC(C)(C)C)c1` ?
Outgoing: 4

Incoming: Again, but for COc1ccc(Nc2nccc(N3CCC(NS(=O)(=O)c4ccc(NC(C)=O)cc4)C3)n2)cc1 (stereo not drawn)
Outgoing: 0

Incoming: What about `COc1cccc(-n2cnc3c(N)ncnc32)c1` ?
Outgoing: 0

Incoming: Also `Cc1nn2c(=O)cc(N3CCOCC3)nc2n1Cc1cccc(Cl)c1Cl` ?
Outgoing: 6

Incoming: `O=C(NCc1cccs1)c1cc(C(=O)c2c(Cl)cccc2Cl)c[nH]1` , same question.
Outgoing: 0

* * *

Test system: PRKCQ
Settings: concentration: 1 μM, replicates: in singlicate; n = 1
// returns false unless %Inh is strictly below 20%, in which case true

Incoming: Does `COc1ccc(-n2cnc3c(N)ncnc32)cc1` have %Inh strictly under 20%?
Outgoing: true

Incoming: // same read-out, input: `COc1cc2ncn(-c3cc(OCCCc4ccccc4)c(C(N)=O)s3)c2cc1OC`
Outgoing: true

Incoming: Please do the same for COc1cc(Nc2nccc(N3CCC(NC(=O)C4COc5ccccc5O4)C3)n2)cc(OC)c1OC (centres unmarked) as well.
Outgoing: true

Incoming: # repeat for `COc1cc(OC)cc(-c2cc3cnc(N)nc3nc2NC(=O)NC(C)(C)C)c1`
Outgoing: true

Incoming: Param item: `Cc1c(Cn2c(C)nn3c(=O)cc(N4CCO[C@H](C)C4)nc23)cccc1C(F)(F)F`
Outgoing: true

Incoming: # repeat for `Cc1ccccc1COc1cc(-n2cnc3cc(Cl)ccc32)sc1C(N)=O`
Outgoing: true

Incoming: Now consider `FC(F)(F)c1ccc(-c2ncn(CCCN3CCOCC3)c2-c2ccncc2)cc1` and answer again.
Outgoing: false

Incoming: What do you have for `O=C(Nc1n[nH]c2nc(-c3ccccc3)c(Br)cc12)C1CC1` ?
Outgoing: true

Incoming: Entry to check: `COc1cc2ncn(-c3cc(OCc4ccncc4Br)c(C(N)=O)s3)c2cc1OC`
Outgoing: false

Incoming: Same for `CN(C)c1cc(-c2ccc3c(N)n[nH]c3c2)nc(N)n1`
Outgoing: true

Incoming: Consider next the compound `Cc1cc(Nc2nc(-c3cccc(C)n3)nc3ccccc23)ccn1` in the same way.
Outgoing: true

Incoming: Param item: `Fc1cccc(CSc2nnc(-c3ccc4c(c3)CCO4)o2)c1`
Outgoing: true

Incoming: Note, next up: `CCCC(=O)Nc1n[nH]c2ncc(-c3cccc4ccccc34)cc12`
Outgoing: true

Incoming: Try `CCc1nc(-c2cccc(C)c2)c(-c2ccncc2)s1` next.
Outgoing: true

Incoming: Thanks! And `Nc1nccc2scc(-c3ccc4c(c3)CCN4C(=O)Cc3ccccc3)c12` ?
Outgoing: true

Incoming: What do you get for `CCn1c(-c2nonc2N)nc2ccccc21` ?
Outgoing: true

Incoming: Then this compound: `CC(C)(C)c1ccc(C(=O)Nc2cn3cc(-c4ccccc4)ccc3n2)cc1`
Outgoing: false

Incoming: Repeat for the following compound: `COc1cc2nccc(Nc3ccc(OCc4ccc(NC(C)=O)cc4)cc3)c2cc1OC.Cl`
Outgoing: true

Incoming: One more compound: `CCCNC(=O)Nc1ccc(Oc2ncnc3ccn(C)c23)cc1`
Outgoing: false

Cited source: paper PMC5540273
